Origin of values: PubChem BioAssay (NCI)

Tested on: HCT-116 colon
Test: NCI-60 one-dose screen, 48 h (100 = growth as untreated, 0 = no growth, -100 = all killed)
Settings: 10 µM unless noted
This is part of a sample that, as a whole, favours compounds with a hit. Of some 83,000 tested, about 20% had one in any assay.
Measurement type: growth (%)
# number only, unit % dropped from output

Use the examples below as a reference point.
| Compound | Measured target | Quantity unit | growth |
| --- | --- | --- | --- |
| CCN1C/C(=N\S(=O)(=O)c2ccccc2)N(CC)C1=S | HCT-116 colon | % | 91.5 |
| NC(=O)c1c(NC(=O)c2cccc(OC(F)(F)F)c2)sc2c1CCC(=O)C2 | HCT-116 colon | % | 15.6 |
| Oc1ccccc1/C=N/Nc1nc(N/N=C/c2ccccc2O)nc(N2CCOCC2)n1 | HCT-116 colon | % | 19.2 |
| O=C1Nc2cc(OC(F)(F)F)ccc2Oc2ccc(-c3ccnc(N4CC[C@H](O)C4)c3)cc21 | HCT-116 colon | % | -40.5 |
| O=C(NNc1nc2cc(F)c(F)cc2n2cccc12)c1ncccn1 | HCT-116 colon | % | 31.2 |

## Task Give reported growth value for CCN1C(=O)N(CC)C2SC(N/N=C/c3ccccc3)=NC21 (configuration not stated)
## Result 14.2

## Task Identify growth associated with the compound O=c1[nH]c(CCl)nc2c1cnn2-c1ccccc1
## Result 94.9

====

Tested on: SR leukemia
Assay: NCI-60 one-dose screen, 48 h (100 = growth as untreated, 0 = no growth, -100 = all killed)
Conditions: 10 µM unless noted
The panel holds about 83,000 compounds, 20% with a hit somewhere; the sample as a whole holds those more often.
Measurement type: growth (%)
Respond numerically; units are % and should not be typed.

Before answering, review these 8 worked examples.
| Compound | Quantity unit | Value observed |
| --- | --- | --- |
| CCCCCCNC(=O)Oc1ccc(/C(=C(/C)c2ccccc2)c2ccc(OCCN(C)C)cc2)cc1 | % | -27.8 |
| O=S(=O)(Nc1ccc(-c2nc(-c3cccc(O)c3)c(-c3ccnc(Br)c3)[nH]2)cc1)c1ccccc1 | % | -9.8 |
| COc1cc(O)c2c(c1)/C=C/C[C@H](O)[C@H](O)C(=O)/C=C\C[C@H](C)OC2=O | % | -6.77 |
| O=C(Nc1cccc(Cl)c1)Nc1nc2ccc(-c3cccc4ccccc34)cc2s1 | % | 90 |
| CCc1ccc(NC(=O)N[C@@H](Cc2cccc(C)c2)C(=O)N[C@@H]2C(=O)N3CCC[C@H]3C(=O)N3CCCC[C@H]3C(=O)N[C@@H](CO)C(=O)N3C[C@H](C)C[C@H]3C(=O)O[C@H]2C)c(F)c1 | % | 34.9 |
| CSc1nccc(-c2c(-c3ccc(F)c(OCc4ccc(F)cc4)c3)nc3sccn23)n1 | % | 73.4 |
| COc1ccc(-c2nnc(SCc3ccc(O)c4ncccc34)n2-c2ccccc2)cc1 | % | 34.3 |
| C#CCOc1ccc(C(Nc2ccc(Cl)cc2)c2nnnn2C2CCCCC2)cc1 (stereo unspecified) | % | 81 |

## Task Fill in reported growth for this entry: C#CCOc1ccc(/C=N/Nc2nc(-c3cc(Cl)ccc3Cl)cs2)cc1
## Result 87.8

## Task Let me know recorded growth for CCN(CC)CCCC(C)NCC(=O)NC(c1ccc2c(c1)OCO2)c1cc(Cl)c2cccnc2c1O (stereo unspecified) , thanks.
## Result 39.2

## Task Item CN(C)CCn1c2ccc(N)cc2c2nc3ccccc3nc21 : provide growth
## Result 33.3
